The reported measurements were obtained from paper PMC5614969.

Listed here: items and their measured Fluorescence increase (F BSA+SDS / F BSA).
# experiment-description: Fluorescence increase upon addition of SDS to probe solutions
# Assay type: physicochemical
# condition-details: addition of 0.1% SDS to ligand in PBS pH 7.4 with 1 mg/ml BSA; mean ± SD, n=3

compound	reported-result
Cc1c(CCC(=O)NCCOCCOCCNC(=O)CCN(C)C(=O)c2c(F)c(F)c(F)c(F)c2C2=c3cc4c5c(c3Oc3c2cc2c6c3CCCN6C(C)(C)C=C2CS(=O)(=O)O)CCC[N+]=5C(C)(C)C=C4CS(=O)(=O)[O-])cccc1CC(C)(C)NCC(O)c1ccc(O)c2c1OCC(=O)N2 (stereo not drawn)	1.4±0.1
Cc1c(CCC(=O)NCCCCNC(=O)c2ccc(C(=O)[O-])c(C3=C4C=CC(=[N+](C)C)C=C4C(C)(C)c4cc(N(C)C)ccc43)c2)cccc1CC(C)(C)NCC(O)c1ccc(O)c2c1OCC(=O)N2 (stereo not drawn) [BI-4C-610CP (16)]	1.5±0.4
Cc1c(CCC(=O)NCCOCCOCCNC(=O)CCCCCNC(=O)COc2ccc(/C=C/C3=[N+]4C(=Cc5ccc(-c6cccs6)n5[B-]4(F)F)C=C3)cc2)cccc1CC(C)(C)NCC(O)c1ccc(O)c2c1OCC(=O)N2 (stereo not drawn)	10.5±1.7
CN(CCC(=O)NCCOCCOCCOCCOCCC(=O)NCCC(C)(C)NCC(O)COc1cccc2[nH]c3ccccc3c12)C(=O)c1c(F)c(F)c(F)c(F)c1C1=c2cc3c4c(c2Oc2c1cc1c5c2CCCN5C(C)(C)C=C1CS(=O)(=O)O)CCC[N+]=4C(C)(C)C=C3CS(=O)(=O)[O-] (stereo not drawn)	5.9±1.5
CC(C)(CCNC(=O)CCOCCOCCNC(=O)COc1ccc(/C=C/C2=[N+]3C(=Cc4ccc(-c5cccs5)n4[B-]3(F)F)C=C2)cc1)NC[C@H](O)COc1cccc2[nH]c3ccccc3c12 [ab118171, reference compound]	8.2±3.9

Now consider the entry below.
# Fluorescence increase (F BSA+SDS / F BSA) lookup, item Cc1c(CCC(=O)NCCOCCOCCNC(=O)c2ccc(C(=O)[O-])c(C3=C4C=CC(=[N+](C)C)C=C4C(C)(C)c4cc(N(C)C)ccc43)c2)cccc1CC(C)(C)NCC(O)c1ccc(O)c2c1OCC(=O)N2 (stereo not drawn) [BI-PEG-610CP (19)] 1.2±0.3
